System: SK-MEL-2
assay: NCI tumour cell line growth inhibition, 48 h
The source made the active and inactive calls. No stated cut-off is given here; in the data, active = GI50 up to about 1.1 µM and inactive = higher.
measuredParameter: GI50

compound	measuredParameter	result
O=C1c2cccc3cccc(c23)C(=O)N1CCCNOCCONCCCN1C(=O)c2cccc3cccc(c23)C1=O	GI50	> 100 µM (inactive)
Cc1ccc(N2C(=O)C3c4[nH]c5ccc(C)cc5c4C4CCC(C(C)(C)C)CC4C3C2=O)cc1 (stereo not given)	GI50	35.8 µM (inactive)
CN(C)c1ccc(/C=C/C=c2/c3ccccc3n3c2cc(-c2ccccc2)[n+]3C)cc1	GI50	4.54 µM (inactive)
Cc1c(Cl)cccc1NC(=O)C(=O)c1c(O)c2ccc(O)cc2oc1=O	GI50	> 100 µM (inactive)

Record `Cc1ccc([N+](=O)[O-])c2c(NCCC[N+](C)(C)[O-])c3ccccc3nc12` . Reported GI50: 0.773 µM (active)

====

Tested on: SNB-19
assay: NCI tumour cell line growth inhibition, 48 h
Activity calls are given as the source filed them. Cut-off read from the data, not from the text of the source: active = GI50 up to about 1.1 µM and inactive = higher.
// classify into 1.0 = active, 0.0 = inactive

molecule	testTarget	assignedClass
Brc1ccc2nc(-c3cccs3)nc(N3CCN(c4ccccc4)CC3)c2c1	SNB-19	0.0
O=C(O)CCC1NC(/C(=C/c2ccccc2O)NC(=O)c2ccccc2)OC1=O (configuration not stated)	SNB-19	0.0
CCC1(O)C(=O)OCc2c1cc1n(c2=O)Cc2cc3ccccc3nc2-1 (configuration not stated)	SNB-19	1.0
C=CCN1/C(=C2\SC(=S)N(c3ccc(C)cc3)C2=O)Sc2c1ncn(C)c2=O	SNB-19	0.0
COc1ccc(C2C(N)=NCC2c2ccccn2)cc1 (configuration not stated)	SNB-19	0.0
Cc1nc2sccn2c1C(=O)OCCOCCOCCOCCOC(=O)c1c(C)nc2sccn12	SNB-19	0.0

Called result for N#Cc1c(-c2ccccc2)c(C#N)c(=S)n(C2OC(CO)C(O)C(O)C2O)c1O (configuration not stated)
0.0

Called result for O=C(Nc1ccccc1[N+](=O)[O-])C(=O)C(C(=O)c1ccccc1-c1ccccc1)C1OC(=O)c2ccccc21 (configuration not stated)
0.0

Called result for `CN(CCC(=O)O)C1=Nc2ccc(Cl)cc2C(c2ccccc2)=[N+]([O-])C1`
0.0

Called result for `CCc1cccc(C)c1NC(=O)C(=O)Cc1nc2ccccc2s1`
0.0

Called result for `N#Cc1nc(-c2ccc(-c3nc(C#N)c(N)o3)cc2)oc1N`
0.0

Called result for `CCOc1ccccc1/N=N/c1c(-c2ccccc2)nn(C(=O)CC(=O)Nc2cccc(Cl)c2)c1-c1ccccc1`
0.0

====

Tested on: SN12C
assay: NCI tumour cell line growth inhibition, 48 h
Calls of active or inactive are those of the source. Cut-off read from the data, not from the text of the source: active = GI50 up to about 1.1 µM and inactive = higher.
// classify into active, inactive

Sample answers from the record:
molecule	testTarget	assignedClass
c1ccc(C(c2ccccc2)c2ccncc2)cc1	SN12C	inactive
c1cncc(C2N3CCCCC3[C@@H]3c4[nH]c5ccccc5c4CCN23)c1 (stereo partly drawn)	SN12C	inactive
COc1ccc2c(c1)C1c3ccccc3CCN1CCC2 (stereo not drawn)	SN12C	inactive

Called result for `Cc1ccc(C(=O)N(Cc2ccccc2)Cc2ccccc2)cc1/N=N/N(C)C`
inactive

Called result for `Cn1c2c3c(F)c(F)ccc3nc-2cc2ccccc21`
active

Called result for Cc1ccc(Sc2ccccc2C23OC(C)(C4C(=O)N(c5ccccc5)C(=O)C42)N(C)C3=O)cc1 (stereo not drawn)
inactive

Called result for COC(=O)C(C(=O)C(=O)Nc1ccccc1C(C)=O)c1nc2ccc(Cl)cc2nc1O (stereo not drawn)
inactive

Called result for `CNC(=O)N(CCC#N)CCCN(C(=O)N(C)C)c1ccccc1`
inactive

====

System: UACC-62
assay: NCI tumour cell line growth inhibition, 48 h
Calls of active or inactive are those of the source. Rule as the data show it: active = GI50 up to about 1.1 µM and inactive = higher.
# reported GI50; entries follow

Record COC1CCCCN1C(=O)c1ccccc1 (stereo unspecified) . Reported GI50: > 25.3 µM (inactive)

====

Tested on: HOP-92
assay: NCI tumour cell line growth inhibition, 48 h
Calls of active or inactive are those of the source. Cut-off read from the data, not from the text of the source: active = GI50 up to about 1.1 µM and inactive = higher.
// classify into active, inactive

Sample answers from the record:
molecule	assignedClass
OCc1ccn2c1[C@@H](O)CC2	inactive
Cc1ccc(Sc2ccccc2N)cc1	inactive

Called result for `COc1cc2c(c(O)c1C)C(=O)C(Cl)=CC2=O`
inactive

Called result for `Cc1cc(C)c2c(n1)S(=O)(=O)N(CCCN1CCN(c3cccc(C(F)(F)F)c3)CC1)C(C(=O)c1ccccc1)=C2O`
inactive

Called result for CC1OC(CC2C=CCc3c(O)c4c(c(O)c32)C(=O)c2ccccc2C4=O)CC(NC(=O)C(F)(F)F)C1O (configuration not stated)
inactive

====

Test system: SNB-75
assay: NCI tumour cell line growth inhibition, 48 h
Active and inactive are the calls of the source. Rule as the data show it: active = GI50 up to about 1.1 µM and inactive = higher.
// classify into active, inactive

Sample answers from the record:
molecule	assignedClass
CCN(CC)CCNCc1cc(Cl)cc2c1OCOC2	inactive
Cc1ccc(N2C(=O)C3C=CC(n4[nH]c(=O)n(Cc5ccccc5)c4=O)CC3C2=O)cc1 (centres undefined)	inactive
COc1cccc2c1C(=O)c1c(O)c3c(c(O)c1C2=O)C[C@@](O)(C(=O)CO)C[C@@H]3OC1CC(N)C(OC)C(C)O1 (some centres undefined)	active
CCC1(O)C=CC(=O)C=C1	inactive
C#C[C@]1(O)CC[C@H]2[C@@H]3CCC4=C/C(=N\OCCN5CCCC5)CC[C@]4(C)[C@H]3CC[C@@]21C	inactive
CCNC(=O)O/N=C1\CCC2[C@@H]3CC=C4C[C@@H](OC(=O)NCC)CC[C@]4(C)C3CC[C@]12C (some centres undefined)	inactive

Called result for `COC(=O)CCN(CCC(=O)OC)C1CC1`
inactive

Called result for `C/C(CN1C(=O)c2ccccc2C1=O)=N\NS(=O)(=O)c1ccc(C)cc1`
inactive

Called result for `CC[C@]12C=CCN3CC[C@@]4(c5cc(N=O)c(OC)cc5N(C)[C@H]4[C@@](O)(C(=O)OC)[C@@H]1OC(C)=O)[C@@H]32`
inactive

====

Test system: DMS-273
assay: NCI tumour cell line growth inhibition, 48 h
Active and inactive are the calls of the source. Rule as the data show it: active = GI50 up to about 1.1 µM and inactive = higher.
// classify into YES (active), NO (inactive)

compound	assignedClass
Cc1cc(N(CCC#N)CCC#N)ccc1/C=C(\NC(=O)/C=C/c1ccccc1)NC(=O)Nc1ccc(Cl)cc1	NO
O=C(O)c1ccc(C2C(=O)N[C@@H]3CCC[C@H]23)cc1 (some centres not stated)	NO
O=C1Nc2ccccc2Nc2ccncc21	NO
O=C1C(c2ccccc2)=C(c2ccccc2)C(c2ccc(Sc3ccc(C4=C(c5ccccc5)C(=O)C(c5ccccc5)=C4c4ccccc4)cc3)cc2)=C1c1ccccc1	NO
COc1cccc2c1C(=O)c1c(O)c3c(c(O)c1C2=O)C[C@@](O)(C(=O)CO)C[C@@H]3OC1CC(N)C(OC)C(C)O1 (some centres not stated)	YES
CCOC(=O)N1CCc2cc(OC)c(OC)c3c2c1cc1cc(OC)c(OC)cc13	YES

Called result for `C/C=C1\NC(=O)[C@H]2CSSCCC=C[C@H](CC(=O)N[C@H](C(C)C)C(=O)N2)OC(=O)[C@H](C(C)C)NC1=O`
YES

====

System: A549
assay: NCI tumour cell line growth inhibition, 48 h
Activity calls are given as the source filed them. Cut-off read from the data, not from the text of the source: active = GI50 up to about 1.1 µM and inactive = higher.
# reported GI50; entries follow

compound	result
CCCCCCN(CCCCCC)C(=S)N/N=C(\C)c1ccccn1	1.52 µM (inactive)
CCc1nc(N)nc(N)c1-c1ccc(Cl)c(/N=C/N(C)C)c1	15.3 µM (inactive)
O=C1CC(O)c2c(Cl)sc(Cl)c21 (stereo unspecified)	16.4 µM (inactive)
Cc1nc2ccccc2c(=O)n1/N=C(\N=N\c1cc(Cl)ccc1Cl)c1ccc(N(C)C)cc1	> 100 µM (inactive)
CC(=N\N)/C(C)=N/N=C(C)/C(C)=N/N=C(C)/C(C)=N/N=C(C)/C(C)=N/N	> 100 µM (inactive)
CCC1=CCC(P(=O)(c2ccccc2)c2ccccc2)CC1C (stereo unspecified)	37.1 µM (inactive)

Here's the next entry for you.
Short answer on A549 for `O=c1[nH]c2ccccc2cc1C(Cl)=C(Cl)Cl` , GI50: > 100 µM (inactive)

====

# reported GI50; entries follow
Test system: EKVX
assay: NCI tumour cell line growth inhibition, 48 h
Calls of active or inactive are those of the source. No stated cut-off is given here; in the data, active = GI50 up to about 1.1 µM and inactive = higher.

Some molecules with recorded GI50:
molecule	GI50
CCCOc1ccc(/C=C\c2cc(OC)c(OC)c(OC)c2)cc1	87.5 µM (inactive)
COc1ccc2[nH]c(Cl)c(/C=C3/C(=O)Nc4cc(C)c(OC)cc43)c2c1	9.53 µM (inactive)
COC1C(O)CC(OC2C(C)OC(Oc3cc(O)c4c(O)c5c(cc4c3)C[C@@H]([C@H](OC)C(=O)[C@@H](O)[C@@H](C)O)[C@H](OC3CC(OC4CC(OC6CC(C)(O)C(O)C(C)O6)C(O)C(C)O4)C(O)C(C)O3)C5=O)CC2OC(C)=O)OC1C (stereo partly specified)	> 100 µM (inactive)
CCN(CC)N1C(=O)[N-][N+](CC)(CC)C1=O	> 100 µM (inactive)
S=c1sc2ccccc2n1CN1CCN(Cc2ccccc2)CC1	> 100 µM (inactive)
Cc1ccc(Sc2ccccc2C23OC(C)(C4C(=O)N(c5ccccc5)C(=O)C42)N(C)C3=O)cc1 (stereo unspecified)	> 100 µM (inactive)

Short answer on EKVX for CN(C)CS/C(N)=N\C(O)C(Cl)(Cl)Cl (stereo unspecified) , GI50: > 100 µM (inactive)

Short answer on EKVX for CCOC(=O)CCC(NC(=O)c1ccc(OCc2ccc3nc(-c4ccccc4)c(Cl)nc3c2)cc1)C(=O)OCC (stereo unspecified) , GI50: 19.9 µM (inactive)

Short answer on EKVX for `COc1cc(/C=C/c2ccncc2)cc(OC)c1OC` , GI50: 13.1 µM (inactive)

Short answer on EKVX for C/C=C\C(CC(=O)NCCc1cn(C(=O)OCc2ccccc2)c2ccccc12)CC(=O)OC (stereo unspecified) , GI50: 45.2 µM (inactive)

Short answer on EKVX for `CC(C)(C)OC(=O)CN1CCNCCNCC1` , GI50: > 100 µM (inactive)
